Catalogue of IC50 values
- target-entity: HCV RdRp (NS5B) (UniProt P26663)
- Sequence (P26663 whole entry, looked up): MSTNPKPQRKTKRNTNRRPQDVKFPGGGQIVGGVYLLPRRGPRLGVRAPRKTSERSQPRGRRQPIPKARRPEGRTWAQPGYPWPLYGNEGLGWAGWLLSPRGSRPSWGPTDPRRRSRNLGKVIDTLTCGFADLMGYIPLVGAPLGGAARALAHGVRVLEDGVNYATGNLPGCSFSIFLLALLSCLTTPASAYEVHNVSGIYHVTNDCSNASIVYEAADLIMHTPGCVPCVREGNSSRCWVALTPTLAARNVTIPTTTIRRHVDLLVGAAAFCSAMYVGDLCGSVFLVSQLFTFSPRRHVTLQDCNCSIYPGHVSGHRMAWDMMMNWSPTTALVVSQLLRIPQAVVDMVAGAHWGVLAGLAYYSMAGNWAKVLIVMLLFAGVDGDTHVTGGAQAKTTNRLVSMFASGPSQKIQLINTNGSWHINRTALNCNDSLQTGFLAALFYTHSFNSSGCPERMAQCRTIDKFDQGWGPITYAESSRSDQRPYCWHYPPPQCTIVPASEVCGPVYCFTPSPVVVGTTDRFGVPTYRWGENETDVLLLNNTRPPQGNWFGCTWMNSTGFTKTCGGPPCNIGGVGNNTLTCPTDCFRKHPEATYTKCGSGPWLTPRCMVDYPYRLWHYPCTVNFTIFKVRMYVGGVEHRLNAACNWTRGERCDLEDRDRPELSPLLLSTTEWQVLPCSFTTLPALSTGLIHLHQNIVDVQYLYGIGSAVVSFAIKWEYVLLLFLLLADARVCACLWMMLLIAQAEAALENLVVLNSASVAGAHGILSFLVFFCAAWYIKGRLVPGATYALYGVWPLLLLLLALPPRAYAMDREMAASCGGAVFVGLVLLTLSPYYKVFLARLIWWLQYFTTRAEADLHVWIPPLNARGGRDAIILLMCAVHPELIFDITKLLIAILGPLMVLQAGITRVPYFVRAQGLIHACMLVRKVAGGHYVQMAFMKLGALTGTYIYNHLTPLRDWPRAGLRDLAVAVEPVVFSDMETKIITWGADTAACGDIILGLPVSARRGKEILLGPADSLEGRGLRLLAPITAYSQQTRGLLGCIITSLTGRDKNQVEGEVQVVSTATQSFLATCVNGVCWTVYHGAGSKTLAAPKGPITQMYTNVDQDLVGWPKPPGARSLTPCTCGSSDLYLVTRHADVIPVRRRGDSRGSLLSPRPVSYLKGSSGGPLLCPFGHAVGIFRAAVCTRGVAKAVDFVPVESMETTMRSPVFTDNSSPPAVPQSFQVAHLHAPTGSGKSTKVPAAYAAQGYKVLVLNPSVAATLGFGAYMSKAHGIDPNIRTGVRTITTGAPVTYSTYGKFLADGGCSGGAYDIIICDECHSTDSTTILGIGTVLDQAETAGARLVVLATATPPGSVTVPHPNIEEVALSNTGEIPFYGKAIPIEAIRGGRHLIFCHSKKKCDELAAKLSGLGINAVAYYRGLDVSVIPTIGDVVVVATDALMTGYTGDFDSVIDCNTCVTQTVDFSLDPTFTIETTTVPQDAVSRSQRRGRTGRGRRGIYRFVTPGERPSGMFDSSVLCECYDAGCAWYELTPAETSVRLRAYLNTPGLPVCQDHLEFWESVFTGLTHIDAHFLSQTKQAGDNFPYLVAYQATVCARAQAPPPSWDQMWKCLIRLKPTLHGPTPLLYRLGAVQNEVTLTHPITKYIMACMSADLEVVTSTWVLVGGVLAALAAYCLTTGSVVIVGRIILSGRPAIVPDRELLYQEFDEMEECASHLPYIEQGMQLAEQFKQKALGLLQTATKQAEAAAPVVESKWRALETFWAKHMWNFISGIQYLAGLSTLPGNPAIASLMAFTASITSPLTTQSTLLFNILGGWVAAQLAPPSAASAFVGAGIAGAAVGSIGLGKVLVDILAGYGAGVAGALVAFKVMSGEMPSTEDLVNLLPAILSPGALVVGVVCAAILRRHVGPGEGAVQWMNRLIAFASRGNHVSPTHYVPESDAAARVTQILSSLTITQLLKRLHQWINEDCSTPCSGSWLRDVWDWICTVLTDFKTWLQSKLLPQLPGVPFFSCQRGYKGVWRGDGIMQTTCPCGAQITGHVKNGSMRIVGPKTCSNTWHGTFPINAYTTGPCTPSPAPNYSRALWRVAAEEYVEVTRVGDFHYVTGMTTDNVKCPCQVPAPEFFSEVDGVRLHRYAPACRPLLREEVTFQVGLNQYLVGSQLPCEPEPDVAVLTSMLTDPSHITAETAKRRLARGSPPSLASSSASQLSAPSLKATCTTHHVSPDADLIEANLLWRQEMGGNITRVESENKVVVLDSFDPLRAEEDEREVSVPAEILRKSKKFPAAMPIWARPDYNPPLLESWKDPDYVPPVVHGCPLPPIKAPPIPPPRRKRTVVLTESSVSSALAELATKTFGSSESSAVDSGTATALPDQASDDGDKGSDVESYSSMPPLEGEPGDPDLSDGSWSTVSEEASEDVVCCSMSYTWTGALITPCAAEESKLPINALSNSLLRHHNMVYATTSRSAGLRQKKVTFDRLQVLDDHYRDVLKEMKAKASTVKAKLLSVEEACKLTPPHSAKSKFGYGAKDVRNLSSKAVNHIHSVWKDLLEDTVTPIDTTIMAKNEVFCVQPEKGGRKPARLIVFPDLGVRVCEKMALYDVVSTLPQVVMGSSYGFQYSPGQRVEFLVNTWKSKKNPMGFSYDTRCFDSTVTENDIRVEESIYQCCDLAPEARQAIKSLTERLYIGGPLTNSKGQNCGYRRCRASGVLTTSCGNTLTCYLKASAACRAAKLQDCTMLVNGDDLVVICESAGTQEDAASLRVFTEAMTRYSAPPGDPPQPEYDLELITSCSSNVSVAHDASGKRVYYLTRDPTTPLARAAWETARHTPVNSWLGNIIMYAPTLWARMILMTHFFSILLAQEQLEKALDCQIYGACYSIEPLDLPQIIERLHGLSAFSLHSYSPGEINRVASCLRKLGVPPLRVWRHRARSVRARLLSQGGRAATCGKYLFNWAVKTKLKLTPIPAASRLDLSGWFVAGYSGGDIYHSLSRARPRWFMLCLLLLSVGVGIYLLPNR
- Assay type: biochemical, hepatitis C virus

# structure, test-result
records = [
    ("Cc1ccc(NC(=O)[C@@H](CCCN)NC(=O)Nc2ccc(OCc3ccccc3)cc2)cc1", "> 50 µM"),
    ("Cc1ccc(NC(=O)[C@H](CCCCN)NC(=O)CNC2Cc3ccccc3C2)cc1", "> 50 µM"),
]

Task: Given `Cc1ccc(NC(=O)[C@H](CCCCN)NS(=O)(=O)c2ccc3ccccc3c2)cc1` , state its recorded IC50.
Result: > 50 µM

Task: // repeat for `NCCCC[C@H](NC(=O)Nc1cccc2ccccc12)C(=O)Nc1ccc(CN(C(=O)c2ccco2)C2CCCCC2)cc1` and report
Result: 10 to 50 µM

###

Notes on IC50 obtained with HCV RdRp (NS5B).

Previously resolved entries follow.
# molecule, IC50
rows = [
    ("Cc1ccc(NC(=O)CC2CN(C(=O)C(C)N)CCN2C(=O)OCC2c3ccccc3-c3ccccc32)cc1 (stereo not shown) [Compound 184]", "> 50 µM"),
    ("Cc1ccc(NC(=O)C(CCCCN)NC(=O)CNCc2ccc(C(F)(F)F)cc2)cc1 (stereo not shown) [Compound 352]", "> 50 µM"),
    ("NCCC[C@@H](NC(=O)Nc1ccc(OCc2ccccc2)cc1)C(=O)Nc1ccc(C2CCCCC2)cc1 [Compound 202]", "< 10 µM"),
    ("NCCCC[C@H](NC(=O)Nc1ccc(-c2ccccc2)cc1)C(=O)Nc1ccc(CN(C(=O)c2ccco2)C2CCCCC2)cc1 [Compound 26]", "< 10 µM"),
    ("CC1CCC(NC(=O)[C@H](CCCCN)NC(=O)Nc2ccc(OCc3ccccc3)cc2)CC1 (stereo partly shown) [Compound 264]", "10 to 50 µM"),
]

Task: Given Cc1ccc(NC(=O)C(CCCCN)NC(=O)CNCc2cccc(C(F)(F)F)c2)cc1 (stereo not shown) [Compound 351] , state its recorded IC50.
Result: > 50 µM

Task: // repeat for O=C(CC1CNCCN1C(=O)Nc1ccc2c(c1)Cc1ccccc1-2)Nc1ccc(C2CCCCC2)cc1 (stereo not shown) [Compound 162] and report
Result: 10 to 50 µM

###

Notes on pIC50 obtained with HCV RdRp (NS5B) (UniProt P26663).
pIC50: −log10 of the molar value.

# compound, pIC50
records = [
    ("Cc1ccc(NC(=O)[C@H](CCCN)NC(=O)Nc2ccc3c(c2)Cc2ccccc2-3)cc1", "> 5.00"),
    ("COc1ccccc1NCC(=O)N[C@@H](CCCCN)C(=O)Nc1ccc(C)cc1", "< 4.30"),
    ("Cc1ccc(NC(=O)C(Cc2cccs2)NC(=O)OCC2c3ccccc3-c3ccccc32)cc1 (stereo not shown)", "< 4.30"),
]

# ---- query compound ----
Task: Given Cc1ccc(NC(=O)C(CCCN)NC(=O)OCC2c3ccccc3-c3ccccc32)cc1 (stereo not shown) [Compound 102] , state its recorded pIC50.
Result: < 4.30

###

Catalogue of EC50 values
- Tested on: Huh-7 cells, genotype 1b HCV replicon
- experiment-summary: Inhibition of HCV replication in cell culture, genotype 1b replicon
- Assay type: cell-based, hepatitis C virus
- assay-setup: Hepatitis C virus, Huh-7, 24 h, Huh-7, genotype 1b replicon; intracellular HCV RNA 24 h after 3 daily doses; read-out: EC50

Previously resolved entries follow.
# molecule, test-result
data = [
    ("O=C(CC1CNCCN1C(=O)Nc1ccc(OCc2ccccc2)cc1)Nc1ccc(C2CCCCC2)cc1 (stereo not drawn)", "< 500 nM"),
    ("Cc1cc2cc(NC(=O)[C@H](CCCCN)NC(=O)Nc3ccc4c(c3)Cc3ccccc3-4)ccc2[nH]1", "> 2000 nM"),
    ("Cc1ccc(NC(=O)C(CCCCN)NC(=O)Nc2ccc(-c3nc4ccccc4o3)cc2)cc1 (stereo not drawn)", "> 2000 nM"),
]

Task: Given COC(=O)c1ccc(COc2ccc(NC(=O)NC(CCCCN)C(=O)Nc3ccc(C)cc3)cc2)cc1 (stereo not drawn) , state its recorded EC50.
Result: 500 to 2000 nM

Task: // repeat for `NCCCC[C@H](NC(=O)Nc1ccc(-c2ccccc2)cc1)C(=O)Nc1ccc(C2CCCCC2)cc1` and report
Result: > 2000 nM
